assay: clinical; design: species or system human; settings: female, human, in vivo, 400 mg
Assay endpoint: Cmax (ng/mL)

>>> df
                                   molecule  assay_endpoint  meas_value
0  CNCc1ccc(-c2[nH]c3cc(F)cc4c3c2CCNC4=O)cc1 [rucaparib]            Cmax        2270

---

assay: clinical; design: species or system human; details: female, human, in vivo, 600 mg
Assay endpoint: Cmax (ng/mL)

                           molecular_string  unit_label  meas_value
0  CNCc1ccc(-c2[nH]c3cc(F)cc4c3c2CCNC4=O)cc1       ng/mL        3180
